Source: paper PMC10541198

- test_description: Pharmacokinetic study, IV and PO, plasma, brain and liver
- Assay type: in vivo, mouse
- measurement_context: male, C57BL/6J, mouse; plasma, PO 50 mg/kg
measured_quantity: Tmax
Your answer should be a number followed by the unit of measure.

## Input Identify measured Tmax corresponding to Cc1ccc(-c2cn3cccc(C)c3n2)cc1S(=O)(=O)N1CCNCC1 [YB-537]
## Output 15 min

====

- test_description: Pharmacokinetic study, IV and PO, plasma, brain and liver
- Format: in vivo, mouse
- measurement_context: male, C57BL/6J, mouse; plasma, IV 10 mg/kg; read-out: MRT (MRTinf) (converted)
measured_quantity: MRT inf (min)
Kindly answer with a numeric value in min, unit omitted.

## Input Return value of MRT inf for input "Cc1ccc(-c2cn3cccc(C)c3n2)cc1S(=O)(=O)N1CCNCC1" , no commentary.
## Output 21.4

====

- test_description: Pharmacokinetic study, IV and PO, plasma, brain and liver
- Assay type: in vivo, mouse
- measurement_context: male, C57BL/6J, mouse, plasma, po, 50 mg/kg, PO 50 mg/kg, 60 min; read-out: Plasma concentration, Mean
measured_quantity: concentration at 60 min

## Input Consider the compound "Cc1ccc(-c2cn3cccc(C)c3n2)cc1S(=O)(=O)N1CCNCC1" . State its measured concentration at 60 min.
## Output 1130 ng/mL

====

- test_description: Pharmacokinetic study, IV and PO, plasma, brain and liver
- Type: in vivo, mouse
- measurement_context: male, C57BL/6J, mouse, liver, iv, 10 mg/kg, IV 10 mg/kg, 15 min; read-out: Liver concentration, Mean
measured_quantity: concentration at 15 min (ng/g)
Please reply with the bare figure in ng/g and do not write the unit itself.

## Input For the compound Cc1ccc(-c2cn3cccc(C)c3n2)cc1S(=O)(=O)N1CCNCC1 [YB-537] , give its measured concentration at 15 min value.
## Output 13100

====

- test_description: Pharmacokinetic study, IV and PO, plasma, brain and liver
- Assay type: in vivo, mouse
- measurement_context: male, C57BL/6J, mouse; liver, PO 50 mg/kg; read-out: T1/2 (HL_Lambda_z)
measured_quantity: half-life (min)
Report the value in min with no unit label.

## Input Retrieve half-life measured for "Cc1ccc(-c2cn3cccc(C)c3n2)cc1S(=O)(=O)N1CCNCC1" and print it.
## Output 56.8

====

- test_description: Pharmacokinetic study, IV and PO, plasma, brain and liver
- Format: in vivo, mouse
- measurement_context: male, C57BL/6J, mouse; plasma, PO 50 mg/kg; read-out: MRT (MRTlast) (converted)
measured_quantity: MRT last
Note to self: number, then unit, no commentary.

## Input Tell me its MRT last given Cc1ccc(-c2cn3cccc(C)c3n2)cc1S(=O)(=O)N1CCNCC1 [YB-537] as the entry.
## Output 59.8 min

====

- measured_target: QR1 (Homo sapiens)
- Construct: purchased Sigma-Aldrich
- Sequence (P15559 whole entry): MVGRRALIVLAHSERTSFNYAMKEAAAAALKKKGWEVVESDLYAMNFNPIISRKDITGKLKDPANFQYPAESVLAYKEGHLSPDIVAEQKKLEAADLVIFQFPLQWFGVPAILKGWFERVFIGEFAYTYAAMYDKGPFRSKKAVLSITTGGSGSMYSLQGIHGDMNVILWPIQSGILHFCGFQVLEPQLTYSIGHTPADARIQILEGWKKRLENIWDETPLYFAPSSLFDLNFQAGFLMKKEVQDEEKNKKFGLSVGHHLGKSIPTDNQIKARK
- test_description: QR1 selectivity assay, fluorescence
- Assay type: biochemical
- measurement_context: Figure 2D; readout not stated
pIC50: −log10 of the molar value.
measured_quantity: pIC50

Below, 2 compounds whose answers are already recorded.
Cc1ccc(-c2nnc(-c3ccccc3)o2)cc1S(=O)(=O)N1CCN(C(=O)c2ccco2)CC1 [YB-789]: < 5.00
Cc1ccc(-c2cn3cccc(C)c3n2)cc1S(=O)(=O)N1CCC(C)CC1 [YB-800]: < 5.00

## Input Provide pIC50 value for the following compound: Cc1ccc(-c2cn3cccc(C)c3n2)cc1S(=O)(=O)N1CCNCC1 [YB-537]
## Output < 5.00

====

pIC50 reference
Protein target, amino acids: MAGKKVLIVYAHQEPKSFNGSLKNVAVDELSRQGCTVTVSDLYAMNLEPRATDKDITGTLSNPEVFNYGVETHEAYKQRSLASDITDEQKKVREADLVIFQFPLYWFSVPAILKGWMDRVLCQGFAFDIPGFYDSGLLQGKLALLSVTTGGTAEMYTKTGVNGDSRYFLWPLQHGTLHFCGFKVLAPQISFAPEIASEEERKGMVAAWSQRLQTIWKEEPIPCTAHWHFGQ
Keep it numeric: pIC50 is minus log10 of the concentration in mol/L.

Please review the following examples before continuing.
Cc1ccc(-c2cn3cccc(C)c3n2)cc1S(=O)(=O)N1CCNCC1: 8.52
Cc1ccc(-c2cn3cccc(C)c3n2)cc1S(=O)(=O)N1CCC(C)CC1: 7.52
Cc1nc(-c2ccc(C)c(S(=O)(=O)N3CCC(C)CC3)c2)cs1: 5.13

Continue with the compound presented below.
## Input Please report pIC50 for the following compound: "Cc1ccc(-c2cn3cccc(C)c3n2)cc1S(=O)(=O)N1CCN(C)CC1"
## Output 6.68

====

- test_description: Pharmacokinetic study, IV and PO, plasma, brain and liver
- Format: in vivo, mouse
- measurement_context: male, C57BL/6J, mouse; liver, PO 50 mg/kg; read-out: MRT (MRTlast) (converted)
- Description: The purpose of this study was to determine the pharmacokinetic characteristics of compound NG-537 in C57BL/6J mice following intravenous (IV) and peroral (PO) administration. Levels of NG-537 were determined in blood plasma , brain and liver over time after a single dose . 3.1 Reagents and consumables […] Solution of compound Thiamethoxam (400 ng/ml in water-methanol mixture 1:9, v/v) was used as internal standard (IS) for quantification of NG-537 in plasma samples. […]
measured_quantity: MRT last (min)
Answer format: numeric, min implied, no suffix.

## Input Complete the entry with MRT last for Cc1ccc(-c2cn3cccc(C)c3n2)cc1S(=O)(=O)N1CCNCC1 [YB-537]
## Output 54.9

====

- test_description: Pharmacokinetic study, IV and PO, plasma, brain and liver
- Assay type: in vivo, mouse
- measurement_context: male, C57BL/6J, mouse; liver, PO 50 mg/kg; read-out: MRT (MRTinf) (converted)
measured_quantity: MRT inf (h)
The answer is to be given in h; state only the numeric part.

## Input Give MRT inf for the following compound: "Cc1ccc(-c2cn3cccc(C)c3n2)cc1S(=O)(=O)N1CCNCC1"
## Output 1.16

====

- test_description: Pharmacokinetic study, IV and PO, plasma, brain and liver
- Assay type: in vivo, mouse
- measurement_context: male, C57BL/6J, mouse; brain, PO 50 mg/kg
measured_quantity: Tmax (h)
Give just the number in h; leave the unit off.

## Input Supply recorded Tmax for "Cc1ccc(-c2cn3cccc(C)c3n2)cc1S(=O)(=O)N1CCNCC1" here.
## Output 1

====

- test_description: Pharmacokinetic study, IV and PO, plasma, brain and liver
- Assay type: in vivo, mouse
- measurement_context: male, C57BL/6J, mouse; brain, PO 50 mg/kg; read-out: Kel (Lambda_z) (converted)
measured_quantity: k el
// unit must come after the numeric part

## Input Look up and report measured k el for this entry: Cc1ccc(-c2cn3cccc(C)c3n2)cc1S(=O)(=O)N1CCNCC1 [YB-537]
## Output 0.000182 s⁻¹

====

- test_description: Pharmacokinetic study, IV and PO, plasma, brain and liver
- Type: in vivo, mouse
- measurement_context: male, C57BL/6J, mouse; plasma, PO 50 mg/kg; read-out: AUC0→t=240min (AUClast) (converted)
measured_quantity: AUC(0-t)

## Input Quickly give me recorded AUC(0-t) for Cc1ccc(-c2cn3cccc(C)c3n2)cc1S(=O)(=O)N1CCNCC1 [YB-537]
## Output 3.33 µg·h/mL

====

- test_description: Pharmacokinetic study, IV and PO, plasma, brain and liver
- Type: in vivo, mouse
- measurement_context: male, C57BL/6J, mouse; plasma, IV 10 mg/kg; read-out: Kel (Lambda_z) (converted)
measured_quantity: k el (s⁻¹)
Answer format: numeric, s⁻¹ implied, no suffix.

## Input Determine its reported k el: "Cc1ccc(-c2cn3cccc(C)c3n2)cc1S(=O)(=O)N1CCNCC1"
## Output 0.000695

====

- test_description: Pharmacokinetic study, IV and PO, plasma, brain and liver
- Type: in vivo, mouse
- measurement_context: male, C57BL/6J, mouse; plasma, PO 50 mg/kg; read-out: MRT (MRTinf) (converted)
measured_quantity: MRT inf
Could you give the number and then its unit, please?

## Input Given "Cc1ccc(-c2cn3cccc(C)c3n2)cc1S(=O)(=O)N1CCNCC1" , respond with its MRT inf.
## Output 1.27 h

====

- test_description: Pharmacokinetic study, IV and PO, plasma, brain and liver
- Type: in vivo, mouse
- measurement_context: male, C57BL/6J, mouse, liver, po, 50 mg/kg, PO 50 mg/kg, 15 min; read-out: Liver concentration, Mean
measured_quantity: concentration at 15 min (ng/g)
Use ng/g as the unit, but write only the number.

## Input Please supply the value of reported concentration at 15 min for the item Cc1ccc(-c2cn3cccc(C)c3n2)cc1S(=O)(=O)N1CCNCC1 [YB-537]
## Output 67700

====

- test_description: Pharmacokinetic study, IV and PO, plasma, brain and liver
- Type: in vivo, mouse
- measurement_context: male, C57BL/6J, mouse; plasma, PO 50 mg/kg; read-out: AUC0→∞ (AUCINF_obs) (converted)
measured_quantity: AUC(0-inf) (ng·h/mL)
The answer is to be given in ng·h/mL; state only the numeric part.

## Input Provide one value: measured AUC(0-inf) of Cc1ccc(-c2cn3cccc(C)c3n2)cc1S(=O)(=O)N1CCNCC1 [YB-537]
## Output 3550
